Hello, the source for this data is PubChem BioAssay (NCI), in case you need it.

- runDescription: NCI Yeast Anticancer Drug Screen. Data for the sgs1 mgt1 strain (AID 161);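 note: 0% = growth of cultures given vehicle only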
- conditionSummary: S. cerevisiae sgs1 mgt1 strain, at 50.0 µM, stronger effect = higher value
- Method: Growth inhibition of yeast strains with defined genetic alterations is measured as a screen for potential anti-cancer activity. Selected strains with alterations in DNA damage repair or cell cycle control were exposed to compounds and growth inhibition was measured relative to vehicle treated controls. The strain used in this assay is sgs1 mgt1
This is part of a sample that, as a whole, favours compounds with a hit. Of some 79,000 tested, about 15% had one in any assay.
measureName: growth inhibition (%)
// return numeric value only (unit: %, not printed)

State its growth inhibition: CCCCN(CCCC)CC(O)c1cc(-c2ccc(Cl)c(Cl)c2)nc2c(Cl)cc(Cl)cc12 (stereo unspecified)
-15.7

Input CCOC(=O)C12CCC(C(=O)OCC)(CC13OCCO3)C1(C2)OCCO1 , output reported growth inhibition.
10

Identify measured growth inhibition corresponding to O=C1C(=Cc2ccc([N+](=O)[O-])cc2)C(=O)c2ccccc21
22.1

Supply growth inhibition value. Item: O=[N+]([O-])c1ccc(Cl)c2cccnc12
-0.15

Name the recorded growth inhibition of the item CCNC(=O)C1CCCN1C(=O)C(CCCN=C(N)N)NC(=O)C(CC(C)C)NC(=O)C(Cc1c[nH]c2ccccc12)NC(=O)C(Cc1ccc(O)cc1)NC(=O)C(CO)NC(=O)C(Cc1c[nH]c2ccccc12)NC(=O)C(Cc1cnc[nH]1)NC(=O)C1CCC(=O)N1 (stereo unspecified) in your answer.
-18.5

For the molecule COc1ncnc2c(NC3OC(CO)C(O)C3O)ncnc12 (stereo unspecified) , give its reported growth inhibition.
-5.4

Consider the molecule CN(C)Cc1c(CC(O)(c2ccccc2)c2ccccc2)ccc2ccccc12 and give its recorded growth inhibition.
-12.2

Fill in growth inhibition for record CN(CCC1(C)C(=O)CCc2ccccc21)Cc1ccccc1 (stereo unspecified)
22.8

Provide growth inhibition value for the following molecule: CCCCOCC(=O)NC1CCCCC1
-39.4

Recall and state the measured growth inhibition for CC(C)(C)OC(=O)c1cccc(Br)c1 .
-4.55

Return reported growth inhibition. Input molecule: CC(C)(Oc1ccc(/C=C/C(=O)c2ccccc2)cc1)C(=O)Nc1c(Cl)cccc1Cl
-3.15

Please supply the value of reported growth inhibition for the item CCc1c(CN)c(CC)c(CNC2=NCCN2)c(CC)c1CNC1=NCCN1
12.2

Give the reported growth inhibition for this molecule. CCCCCCCCCCCC(=O)N(C)CCS(=O)(=O)O
4.55

Respond only with growth inhibition recorded for OC[C@@H](O)[C@H]1NC[C@@H](O)[C@H]1O
-50.1

Tell me its growth inhibition given CCOC(=O)C1=C(C(=O)c2ccc(C)cc2)C(c2ccc([N+](=O)[O-])cc2)C(C(=O)c2ccc(C)cc2)=C(C(=O)OCC)N1 as the entry.
-8.9

Consider the molecule COc1ccc(NC(=O)CCCC(=O)CC(=O)c2ccc(Cl)cc2)c(OC)c1 and give its recorded growth inhibition.
-0.95

Provide growth inhibition value for the following molecule: Cc1ccccc1C(=O)NNC(=O)c1ccc2ccccc2c1
-3.9

Supply reported growth inhibition belonging to this molecule: C[Si](C)(C)/C(=N/Nc1ccc([N+](=O)[O-])cc1[N+](=O)[O-])c1ccccc1
-12.9

Input c1cc[n+](CC[n+]2ccccn2)nc1 , output reported growth inhibition.
7.65

Quick one: give measured growth inhibition for O=S(=O)(O)C(O)C(c1ccccc1)c1ccccc1 (stereo unspecified)
-15.6

Determine from records and report growth inhibition for c1ccc2[nH]c(-c3nc4ccccc4s3)cc2c1
0.05
